Species: Rattus norvegicus
Assay name: Open TG-GATES - Regimen: Single
Type: toxicity, organism-based, Sprague-Dawley
Parameters: regimen Single, gender Male, age 6 weeks
Test context: in vivo, po, 100 mg/kg, 24 h, tissue Kidney, route gavage, dose level Low
KIDNEY_L by entry:
Provide only the numeric value, understood in g.

- CN(C)CCC=C1c2ccccc2COc2ccccc21 [DOXEPIN]: 0.9

Exercise: Fill in reported KIDNEY_L for this entry: O=NN1CCOCC1 [N-NITROSOMORPHOLINE]
Solution: 1

Exercise: Fill in reported KIDNEY_L for this entry: CCC1(c2ccccc2)C(=O)NC(=O)NC1=O [PHENOBARBITAL]
Solution: 1.1

Exercise: Fill in reported KIDNEY_L for this entry: CN(C)C(=N)N=C(N)N [METFORMIN]
Solution: 0.9

---

Species on record: Rattus norvegicus
Assay name: Open TG-GATES - Regimen: Daily Repeat
Assay type: toxicity, organism-based, Sprague-Dawley
Parameters: regimen Daily Repeat, gender Male, age 6 weeks
Test context: in vivo, po, 0 mg/kg, […], tissue Plasma, route gavage, dose level Control, time 7 day
Readout kind: K (meq/L)
Provide only the numeric value, understood in meq/L.

• ClC(Cl)(Cl)Cl [CARBON TETRACHLORIDE] = 4.2
• CCC1(c2ccccc2)C(=O)NC(=O)NC1=O = 4.9
• CCc1oc2ccccc2c1C(=O)c1cc(Br)c(O)c(Br)c1 = 5.1
• CN(C)CCC=C1c2ccccc2COc2ccccc21 [DOXEPIN] = 4.2

Exercise: Fill in reported K for this entry: CN(C)C(=N)N=C(N)N
Solution: 4.3

Exercise: Fill in reported K for this entry: O=NN(CCCl)C(=O)NC1CCCCC1
Solution: 4.9

Exercise: Fill in reported K for this entry: CCCCc1oc2ccccc2c1C(=O)c1cc(I)c(OCCN(CC)CC)c(I)c1
Solution: 3.8

Exercise: Fill in reported K for this entry: CC1=C(CC(=O)O)c2cc(F)ccc2/C1=C\c1ccc([S+](C)[O-])cc1 (stereo not given)
Solution: 4.2

Exercise: Fill in reported K for this entry: OCCOCCN1CCN(C(c2ccccc2)c2ccc(Cl)cc2)CC1 (stereo not given) [HYDROXYZINE]
Solution: 4

Exercise: Fill in reported K for this entry: CC[C@H]1[C@@H]2C[C@H]3[C@@H]4N(C)c5ccccc5[C@]45C[C@@H]([C@@H]2[C@H]5O)N3[C@@H]1O
Solution: 4.4

---

Organism: Rattus norvegicus
Assay name: Open TG-GATES - Regimen: Single
Format: toxicity, organism-based, Sprague-Dawley
Design: regimen Single, gender Male, age 6 weeks
Test context: in vivo, po, 0 mg/kg, 9 h, tissue Plasma, route gavage, dose level Control
Readout kind: TBIL (mg/dL)
Provide only the numeric value, understood in mg/dL.

* CCc1oc2ccccc2c1C(=O)c1cc(Br)c(O)c(Br)c1 [BENZBROMARONE] | 0.3
* CCC1(c2ccccc2)C(=O)NC(=O)NC1=O [PHENOBARBITAL] | 0.1
* O=NN(CCCl)C(=O)NC1CCCCC1 [LOMUSTINE] | 0.3
* CN(C)CCC=C1c2ccccc2COc2ccccc21 [DOXEPIN] | 0.058
* ClC(Cl)(Cl)Cl [CARBON TETRACHLORIDE] | 0.1

Turning to the following molecule.
Exercise: Fill in reported TBIL for this entry: OCCOCCN1CCN(C(c2ccccc2)c2ccc(Cl)cc2)CC1 (stereo not given) [HYDROXYZINE]
Solution: 0.068

---

Lym by entry:
Organism: Rattus norvegicus
Assay name: Open TG-GATES - Regimen: Single
Assay type: toxicity, organism-based, Sprague-Dawley
Set-up: regimen Single, gender Male, age 6 weeks
Test context: in vivo, po, 0 mg/kg, 6 h, tissue Blood, route gavage, dose level Control

Observe how each entry below is paired with its result.
* CCc1oc2ccccc2c1C(=O)c1cc(Br)c(O)c(Br)c1 | 79.8%
* CC1=C(CC(=O)O)c2cc(F)ccc2/C1=C\c1ccc([S+](C)[O-])cc1 (stereo not given) | 78.6%

Exercise: Fill in reported Lym for this entry: CCC1(c2ccccc2)C(=O)NC(=O)NC1=O
Solution: 73.6%

Exercise: Fill in reported Lym for this entry: OCCOCCN1CCN(C(c2ccccc2)c2ccc(Cl)cc2)CC1 (stereo not given) [HYDROXYZINE]
Solution: 76.2%

Exercise: Fill in reported Lym for this entry: ClC(Cl)(Cl)Cl [CARBON TETRACHLORIDE]
Solution: 69%

Exercise: Fill in reported Lym for this entry: CN(C)C(=N)N=C(N)N
Solution: 77.2%

Exercise: Fill in reported Lym for this entry: CC[C@H]1[C@@H]2C[C@H]3[C@@H]4N(C)c5ccccc5[C@]45C[C@@H]([C@@H]2[C@H]5O)N3[C@@H]1O
Solution: 73.4%

Exercise: Fill in reported Lym for this entry: CN(C)CCC=C1c2ccccc2COc2ccccc21 [DOXEPIN]
Solution: 79.2%

Exercise: Fill in reported Lym for this entry: CC(C)N(CCC(C(N)=O)(c1ccccc1)c1ccccn1)C(C)C (stereo not given) [DISOPYRAMIDE]
Solution: 80.8%

Exercise: Fill in reported Lym for this entry: O=NN(CCCl)C(=O)NC1CCCCC1
Solution: 72%

---

ALP by entry:
Organism: Rattus norvegicus
Assay name: Open TG-GATES - Regimen: Single
Format: toxicity, organism-based, Sprague-Dawley
Design: regimen Single, gender Male, age 6 weeks
Test context: in vivo, po, 0 mg/kg, 3 h, tissue Plasma, route gavage, dose level Control
Provide only the numeric value, understood in IU/L.

Observe how each entry below is paired with its result.
- O=NN(CCCl)C(=O)NC1CCCCC1 [LOMUSTINE]: 881.4
- CC1=C(CC(=O)O)c2cc(F)ccc2/C1=C\c1ccc([S+](C)[O-])cc1 (stereo not given): 1495.6
- CC(C)N(CCC(C(N)=O)(c1ccccc1)c1ccccn1)C(C)C (stereo not given) [DISOPYRAMIDE]: 1747.4
- CN(C)CCC=C1c2ccccc2COc2ccccc21 [DOXEPIN]: 1553
- OCCOCCN1CCN(C(c2ccccc2)c2ccc(Cl)cc2)CC1 (stereo not given) [HYDROXYZINE]: 1501.4
- ClC(Cl)(Cl)Cl [CARBON TETRACHLORIDE]: 947
- CCc1oc2ccccc2c1C(=O)c1cc(Br)c(O)c(Br)c1 [BENZBROMARONE]: 745.6
- CC[C@H]1[C@@H]2C[C@H]3[C@@H]4N(C)c5ccccc5[C@]45C[C@@H]([C@@H]2[C@H]5O)N3[C@@H]1O [AJMALINE]: 879.4
- CCC1(c2ccccc2)C(=O)NC(=O)NC1=O [PHENOBARBITAL]: 939.8

Turning to the following molecule.
Exercise: Fill in reported ALP for this entry: CN(C)C(=N)N=C(N)N [METFORMIN]
Solution: 1612

---

Species: Rattus norvegicus
Assay name: Open TG-GATES - Regimen: Single
Type: toxicity, organism-based, Sprague-Dawley
Parameters: regimen Single, gender Male, age 6 weeks
Test context: in vivo, po, 0 mg/kg, 3 h, tissue Plasma, route gavage, dose level Control
Na by entry:
Provide only the numeric value, understood in meq/L.

Observe how each entry below is paired with its result.
- CCc1oc2ccccc2c1C(=O)c1cc(Br)c(O)c(Br)c1: 138.8
- CC1=C(CC(=O)O)c2cc(F)ccc2/C1=C\c1ccc([S+](C)[O-])cc1 (stereo not given): 142.4
- CCC1(c2ccccc2)C(=O)NC(=O)NC1=O: 141.6
- CN(C)C(=N)N=C(N)N: 140
- CC(C)N(CCC(C(N)=O)(c1ccccc1)c1ccccn1)C(C)C (stereo not given) [DISOPYRAMIDE]: 141.8
- OCCOCCN1CCN(C(c2ccccc2)c2ccc(Cl)cc2)CC1 (stereo not given) [HYDROXYZINE]: 141.8
- CC[C@H]1[C@@H]2C[C@H]3[C@@H]4N(C)c5ccccc5[C@]45C[C@@H]([C@@H]2[C@H]5O)N3[C@@H]1O: 137.2
- CN(C)CCC=C1c2ccccc2COc2ccccc21 [DOXEPIN]: 142.4
- ClC(Cl)(Cl)Cl [CARBON TETRACHLORIDE]: 139.6

Exercise: Fill in reported Na for this entry: O=NN(CCCl)C(=O)NC1CCCCC1
Solution: 139.8

---

Species on record: Rattus norvegicus
Assay name: Open TG-GATES - Regimen: Single
Type: toxicity, organism-based, Sprague-Dawley
Set-up: regimen Single, gender Male, age 6 weeks
Test context: in vivo, po, 0 mg/kg, 3 h, tissue Blood, route gavage, dose level Control
Eos by entry:
Provide only the numeric value, understood in %.

Observe how each entry below is paired with its result.
- ClC(Cl)(Cl)Cl [CARBON TETRACHLORIDE]: 1
- CN(C)CCC=C1c2ccccc2COc2ccccc21 [DOXEPIN]: 0.8
- CC[C@H]1[C@@H]2C[C@H]3[C@@H]4N(C)c5ccccc5[C@]45C[C@@H]([C@@H]2[C@H]5O)N3[C@@H]1O: 1

Exercise: Fill in reported Eos for this entry: CN(C)C(=N)N=C(N)N
Solution: 0.6

Origin of values: ChEMBL document CHEMBL3885861
